# Assay procedure: Pharmacokinetic study in vivo (plasma, LC–MS, noncompartmental)
# Setup conditions: both sexes, Sprague-Dawley, rat, rats, oral 5 mg/kg, single dose
Metric name: AUC(0-t) (ng·h/mL)
// units = ng·h/mL; emit number, no label

Name the recorded AUC(0-t) for `O=C(/C=C/c1ccc(O)c(O)c1/C=C/c1ccc(O)c(O)c1)O[C@H](Cc1ccc(O)c(O)c1)C(=O)O` .
106

----------
# Assay procedure: Pharmacokinetic study in vivo (plasma, LC–MS, noncompartmental)
# Setup conditions: both sexes, Sprague-Dawley, rat, po, 5 mg/kg, rats, oral 5 mg/kg vs i.v. 50 µg/kg, AUCoral/dose divided by AUCiv/dose, read-out: F (oral bioavailability)
Metric name: bioavailability (%)
Answer in %, number only, no unit symbol.

Quick one: bioavailability of `O=C(/C=C/c1ccc(O)c(O)c1/C=C/c1ccc(O)c(O)c1)O[C@H](Cc1ccc(O)c(O)c1)C(=O)O` ?
0.52
